From: paper PMC3553236

Would you kindly list pIC50 for each of these compounds?
test: in vitro; conditions: human, MRP1-HEK293 cells (ABCC1-transfected HEK293)
API: returns pIC50 as number; meaning -log10 of concentration in mol/L.

Item: `CCCS(=O)(=O)Nc1ccc(F)c(C(=O)c2c[nH]c3ncc(-c4ccc(Cl)cc4)cc23)c1F` | pIC50: 4.66

Item: COc1cc([C@@H]2c3cc4c(cc3[C@@H](O[C@@H]3O[C@@H]5CO[C@@H](C)O[C@H]5[C@H](O)[C@H]3O)[C@H]3COC(=O)[C@H]23)OCO4)cc(OC)c1O [Etoposide] | pIC50: 4.46

---

Protein target, amino acids: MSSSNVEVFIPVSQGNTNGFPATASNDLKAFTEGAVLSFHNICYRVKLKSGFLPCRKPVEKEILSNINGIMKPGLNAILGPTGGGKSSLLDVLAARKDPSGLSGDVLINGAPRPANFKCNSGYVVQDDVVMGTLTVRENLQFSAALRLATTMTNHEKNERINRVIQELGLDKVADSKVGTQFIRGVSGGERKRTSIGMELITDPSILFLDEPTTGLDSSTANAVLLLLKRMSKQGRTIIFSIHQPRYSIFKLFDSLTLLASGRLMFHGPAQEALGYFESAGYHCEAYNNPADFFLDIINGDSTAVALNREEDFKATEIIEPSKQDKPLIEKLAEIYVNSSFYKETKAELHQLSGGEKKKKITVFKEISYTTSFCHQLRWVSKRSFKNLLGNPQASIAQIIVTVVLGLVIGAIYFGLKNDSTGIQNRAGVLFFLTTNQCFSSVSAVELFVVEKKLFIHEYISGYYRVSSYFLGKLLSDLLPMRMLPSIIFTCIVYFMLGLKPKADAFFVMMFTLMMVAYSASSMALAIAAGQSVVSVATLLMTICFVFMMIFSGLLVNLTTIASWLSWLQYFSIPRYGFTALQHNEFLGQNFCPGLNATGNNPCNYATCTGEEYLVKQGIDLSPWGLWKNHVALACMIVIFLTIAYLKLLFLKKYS
measured_attribute: IC50 (nM)
Express the result in nM but write the number alone.

Item: `CCCS(=O)(=O)Nc1ccc(F)c(C(=O)c2c[nH]c3ncc(-c4ccc(Cl)cc4)cc23)c1F` | IC50: 570

---

test system: BRAF(V600E) mutant A375 melanoma cells; assay: cells; type: cell-based, human; settings: Homo sapiens, A-375, A375; drug alone
measured_attribute: pIC50
API: returns pIC50 as number; meaning -log10 of concentration in mol/L.

Item: `O=C1c2c(O)ccc(O)c2C(=O)c2c(NCCNCCO)ccc(NCCNCCO)c21` | pIC50: 8.63

---

assay: in vitro; type: cell-based, human; settings: human, R482-HEK293 cells (ABCG2-transfected HEK293)
measured_attribute: pIC50
API: returns pIC50 as number; meaning -log10 of concentration in mol/L.

Item: `CC[C@@]1(O)C(=O)OCc2c1cc1n(c2=O)Cc2cc3c(CN(C)C)c(O)ccc3nc2-1` | pIC50: 6.29

Item: `O=C1c2c(O)ccc(O)c2C(=O)c2c(NCCNCCO)ccc(NCCNCCO)c21` | pIC50: 6.75

---

molecular target: UniProtKB P08183; assay: [125I]IAAP photoaffinity labeling of ABCB1
Sequence (P08183 whole entry): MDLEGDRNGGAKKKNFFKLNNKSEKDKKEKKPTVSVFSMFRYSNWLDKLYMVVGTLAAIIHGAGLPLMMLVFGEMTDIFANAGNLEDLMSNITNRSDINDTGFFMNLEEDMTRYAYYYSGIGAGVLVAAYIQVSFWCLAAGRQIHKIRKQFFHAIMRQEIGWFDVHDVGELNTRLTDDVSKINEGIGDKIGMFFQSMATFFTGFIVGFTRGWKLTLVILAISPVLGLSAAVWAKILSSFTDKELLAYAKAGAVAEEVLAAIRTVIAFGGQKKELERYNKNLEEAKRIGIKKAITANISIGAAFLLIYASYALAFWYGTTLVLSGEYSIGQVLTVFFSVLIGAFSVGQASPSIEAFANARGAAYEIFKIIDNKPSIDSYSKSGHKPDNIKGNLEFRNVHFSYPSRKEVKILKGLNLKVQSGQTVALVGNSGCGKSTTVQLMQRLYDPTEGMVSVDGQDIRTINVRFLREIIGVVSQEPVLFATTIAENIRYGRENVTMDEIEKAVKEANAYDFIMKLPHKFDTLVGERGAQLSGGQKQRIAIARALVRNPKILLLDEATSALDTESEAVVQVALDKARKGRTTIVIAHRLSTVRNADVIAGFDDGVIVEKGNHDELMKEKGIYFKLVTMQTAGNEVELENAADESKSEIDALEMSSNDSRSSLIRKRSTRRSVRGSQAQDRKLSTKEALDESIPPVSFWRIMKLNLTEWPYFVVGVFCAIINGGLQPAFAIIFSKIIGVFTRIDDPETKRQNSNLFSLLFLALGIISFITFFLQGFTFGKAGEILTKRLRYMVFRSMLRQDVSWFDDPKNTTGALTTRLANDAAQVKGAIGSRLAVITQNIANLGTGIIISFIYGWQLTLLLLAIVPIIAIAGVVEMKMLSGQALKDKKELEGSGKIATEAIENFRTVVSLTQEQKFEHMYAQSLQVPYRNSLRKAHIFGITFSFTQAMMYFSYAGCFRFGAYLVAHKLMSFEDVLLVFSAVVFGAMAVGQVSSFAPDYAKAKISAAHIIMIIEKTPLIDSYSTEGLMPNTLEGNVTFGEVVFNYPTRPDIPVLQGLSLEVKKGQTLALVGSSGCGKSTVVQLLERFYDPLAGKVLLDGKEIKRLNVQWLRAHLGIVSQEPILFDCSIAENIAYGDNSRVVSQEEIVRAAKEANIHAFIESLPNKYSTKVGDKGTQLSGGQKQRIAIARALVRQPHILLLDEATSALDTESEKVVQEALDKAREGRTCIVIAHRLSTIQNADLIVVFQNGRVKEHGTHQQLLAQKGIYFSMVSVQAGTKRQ
measured_attribute: IC50 (µM)
Express the result in µM but write the number alone.

Record CCCS(=O)(=O)Nc1ccc(F)c(C(=O)c2c[nH]c3ncc(-c4ccc(Cl)cc4)cc23)c1F [Vemurafenib] ; system UniProtKB P08183; IC50 = 4.51
